# Experiment description: AUC (0 to infinity) in mouse at 45 mg/kg, po administered as single dose via gavage
# Type: ADME, organism-based
# Recorded conditions: in vivo
Measurement type: AUC(0-inf) (µg·h/mL)
Provide the reading as a plain figure in µg·h/mL.

Value of AUC(0-inf) reported for the compound COc1ncc(F)cc1CNc1ccc(Cc2c[nH]c3ncc(C)cc23)c(F)n1 is 215

----------
# System name: Insulin-like growth factor 1 receptor (Homo sapiens)
Measurement type: IC50

Noted for COc1ncc(F)cc1CNc1ccc(Cc2c[nH]c3ncc(C)cc23)c(F)n1 : its IC50 reads > 1000 nM

----------
# System name: UniProtKB P49760
# Sequence (P49760 whole entry): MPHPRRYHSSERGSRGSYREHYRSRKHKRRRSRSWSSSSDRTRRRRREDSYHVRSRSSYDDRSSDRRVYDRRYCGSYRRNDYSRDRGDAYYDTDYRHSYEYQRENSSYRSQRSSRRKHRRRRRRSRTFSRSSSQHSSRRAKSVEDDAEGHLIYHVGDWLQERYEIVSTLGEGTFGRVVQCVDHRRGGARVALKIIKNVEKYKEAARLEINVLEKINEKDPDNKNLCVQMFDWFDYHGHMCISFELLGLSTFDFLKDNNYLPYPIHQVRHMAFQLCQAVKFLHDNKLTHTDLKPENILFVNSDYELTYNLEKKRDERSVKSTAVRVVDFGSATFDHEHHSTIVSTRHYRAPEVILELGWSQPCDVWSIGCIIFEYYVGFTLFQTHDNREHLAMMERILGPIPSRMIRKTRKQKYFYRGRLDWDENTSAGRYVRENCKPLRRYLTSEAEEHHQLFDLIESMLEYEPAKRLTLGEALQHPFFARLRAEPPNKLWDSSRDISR
pIC50: −log10 of the molar value.
Measurement type: pIC50

With UniProtKB P49760 as the test system, COc1ncc(F)cc1CNc1ccc(Cc2c[nH]c3ncc(C)cc23)c(F)n1 [PLX-5622] showed pIC50 of < 6.00

----------
# Experiment description: Ratio of drug concentration in brain to plasma in mouse at 300 ppm administered as rodent chow for 14 days
# Assay type: ADME, cell-free
# Recorded conditions: route po, time 14 day, read-out: BPR
Measurement type: Kp at 336 h
A bare number is all that is needed in reply.

Summary for this compound, COc1ncc(F)cc1CNc1ccc(Cc2c[nH]c3ncc(C)cc23)c(F)n1 : Kp at 336 h is 0.22

----------
# System name: Serine/threonine-protein kinase D1 (Homo sapiens)
# Sequence (Q15139 whole entry): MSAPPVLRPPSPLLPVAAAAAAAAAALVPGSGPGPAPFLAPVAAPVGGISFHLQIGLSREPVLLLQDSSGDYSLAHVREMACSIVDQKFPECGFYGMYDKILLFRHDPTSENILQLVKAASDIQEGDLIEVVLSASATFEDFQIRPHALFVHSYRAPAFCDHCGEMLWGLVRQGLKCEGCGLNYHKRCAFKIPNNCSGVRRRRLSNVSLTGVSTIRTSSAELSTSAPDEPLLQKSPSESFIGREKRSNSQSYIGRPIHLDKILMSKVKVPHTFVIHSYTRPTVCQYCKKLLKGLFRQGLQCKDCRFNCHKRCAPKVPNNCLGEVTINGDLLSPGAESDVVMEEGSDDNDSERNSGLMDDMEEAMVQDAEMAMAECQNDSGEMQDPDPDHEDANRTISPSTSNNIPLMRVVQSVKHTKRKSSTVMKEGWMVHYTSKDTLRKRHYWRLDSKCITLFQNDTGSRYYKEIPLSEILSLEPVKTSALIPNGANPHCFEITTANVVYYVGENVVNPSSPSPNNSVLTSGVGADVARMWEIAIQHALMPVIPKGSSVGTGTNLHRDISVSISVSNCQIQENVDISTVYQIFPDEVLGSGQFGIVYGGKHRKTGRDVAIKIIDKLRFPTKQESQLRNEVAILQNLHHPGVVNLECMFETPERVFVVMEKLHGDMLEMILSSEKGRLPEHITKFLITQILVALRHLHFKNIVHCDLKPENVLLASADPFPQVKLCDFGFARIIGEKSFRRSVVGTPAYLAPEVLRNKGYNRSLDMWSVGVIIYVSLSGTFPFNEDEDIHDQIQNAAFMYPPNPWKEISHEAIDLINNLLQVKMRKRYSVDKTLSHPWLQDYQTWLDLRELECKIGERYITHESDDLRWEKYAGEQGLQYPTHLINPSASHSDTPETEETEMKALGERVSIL
# Experiment description: Inhibition of PRKD1 (unknown origin)
Measurement type: IC50

The measured IC50 associated with COc1ncc(F)cc1CNc1ccc(Cc2c[nH]c3ncc(C)cc23)c(F)n1 reads > 1000 nM

----------
# System name: Tyrosine-protein kinase Lyn (Homo sapiens, UniProt P07948)
# Sequence (P07948 whole entry): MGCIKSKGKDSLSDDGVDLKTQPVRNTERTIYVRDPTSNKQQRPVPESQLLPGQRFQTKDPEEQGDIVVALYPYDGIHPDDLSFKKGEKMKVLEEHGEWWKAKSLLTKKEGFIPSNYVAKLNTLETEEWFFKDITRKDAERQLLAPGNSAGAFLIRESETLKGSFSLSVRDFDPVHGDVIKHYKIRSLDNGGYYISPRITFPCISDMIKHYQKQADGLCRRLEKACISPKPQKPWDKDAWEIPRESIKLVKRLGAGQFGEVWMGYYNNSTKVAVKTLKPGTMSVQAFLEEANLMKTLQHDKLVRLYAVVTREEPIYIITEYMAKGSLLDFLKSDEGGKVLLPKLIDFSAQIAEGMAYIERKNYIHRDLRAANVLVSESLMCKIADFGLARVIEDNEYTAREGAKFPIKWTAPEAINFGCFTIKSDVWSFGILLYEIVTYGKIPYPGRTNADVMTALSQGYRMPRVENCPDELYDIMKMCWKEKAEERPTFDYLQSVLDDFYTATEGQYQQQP
# Experiment description: Inhibition of LYN_A (unknown origin)
Measurement type: IC50

The recorded IC50 for entry COc1ncc(F)cc1CNc1ccc(Cc2c[nH]c3ncc(C)cc23)c(F)n1 [PLX-5622] equals > 1000 nM

----------
# System name: Serine/threonine-protein kinase mTOR (Homo sapiens)
pIC50: −log10 of the molar value.
Measurement type: pIC50

Documented pIC50 of COc1ncc(F)cc1CNc1ccc(Cc2c[nH]c3ncc(C)cc23)c(F)n1 : < 6.00

----------
# System name: Sphingosine kinase 1 (Homo sapiens)
# Sequence (Q9NYA1 whole entry): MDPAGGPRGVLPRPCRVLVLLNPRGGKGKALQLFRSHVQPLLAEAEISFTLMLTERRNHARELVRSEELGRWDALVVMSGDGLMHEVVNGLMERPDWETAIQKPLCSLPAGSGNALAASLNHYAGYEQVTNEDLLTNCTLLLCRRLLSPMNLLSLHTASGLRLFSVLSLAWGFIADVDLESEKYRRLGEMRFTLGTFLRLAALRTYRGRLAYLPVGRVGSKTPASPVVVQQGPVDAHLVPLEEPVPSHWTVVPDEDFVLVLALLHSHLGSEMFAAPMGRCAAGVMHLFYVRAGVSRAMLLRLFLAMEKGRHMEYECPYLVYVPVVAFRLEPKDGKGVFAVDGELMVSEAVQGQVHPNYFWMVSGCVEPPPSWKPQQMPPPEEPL
pIC50: −log10 of the molar value.
Measurement type: pIC50

Item COc1ncc(F)cc1CNc1ccc(Cc2c[nH]c3ncc(C)cc23)c(F)n1 was tested on Sphingosine kinase 1 (Homo sapiens); the reported pIC50 is < 6.00

----------
# System name: Tyrosine-protein kinase JAK3 (Homo sapiens, UniProt P52333)
# Experiment description: Inhibition of JAK3 (unknown origin)
Measurement type: IC50

So for COc1ncc(F)cc1CNc1ccc(Cc2c[nH]c3ncc(C)cc23)c(F)n1 , the logged IC50 turned out to be > 1 µM

----------
# System name: Platelet-derived growth factor receptor alpha (Homo sapiens, UniProt P16234)
# Sequence (P16234 whole entry): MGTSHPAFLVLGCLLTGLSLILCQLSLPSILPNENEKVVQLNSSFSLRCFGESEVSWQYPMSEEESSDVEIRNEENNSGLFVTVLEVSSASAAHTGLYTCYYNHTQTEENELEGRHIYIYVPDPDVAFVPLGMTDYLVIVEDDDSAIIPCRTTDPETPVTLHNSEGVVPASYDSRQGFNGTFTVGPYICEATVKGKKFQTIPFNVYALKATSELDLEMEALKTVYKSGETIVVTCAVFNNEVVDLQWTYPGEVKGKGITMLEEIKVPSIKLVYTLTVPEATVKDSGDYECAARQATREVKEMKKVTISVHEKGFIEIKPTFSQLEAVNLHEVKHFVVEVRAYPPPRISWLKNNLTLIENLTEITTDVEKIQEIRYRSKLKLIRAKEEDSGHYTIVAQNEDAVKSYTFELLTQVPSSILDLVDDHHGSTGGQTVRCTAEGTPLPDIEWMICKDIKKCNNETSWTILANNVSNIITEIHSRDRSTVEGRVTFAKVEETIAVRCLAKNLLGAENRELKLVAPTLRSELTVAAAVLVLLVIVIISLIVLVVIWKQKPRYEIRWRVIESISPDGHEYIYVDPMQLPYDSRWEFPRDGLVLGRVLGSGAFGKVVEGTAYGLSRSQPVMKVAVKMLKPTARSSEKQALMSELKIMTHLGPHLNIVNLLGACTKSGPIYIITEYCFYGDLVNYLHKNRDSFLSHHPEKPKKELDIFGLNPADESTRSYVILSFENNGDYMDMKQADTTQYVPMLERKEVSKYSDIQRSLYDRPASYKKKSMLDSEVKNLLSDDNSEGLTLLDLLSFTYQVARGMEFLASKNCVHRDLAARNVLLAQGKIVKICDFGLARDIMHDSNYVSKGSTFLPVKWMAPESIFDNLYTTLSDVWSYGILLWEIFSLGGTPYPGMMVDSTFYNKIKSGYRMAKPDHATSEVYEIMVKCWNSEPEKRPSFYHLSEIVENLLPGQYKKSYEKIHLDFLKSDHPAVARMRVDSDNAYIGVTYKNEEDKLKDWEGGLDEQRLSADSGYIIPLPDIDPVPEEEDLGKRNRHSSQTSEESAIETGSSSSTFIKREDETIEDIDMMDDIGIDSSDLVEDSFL
Measurement type: IC50

Given item COc1ncc(F)cc1CNc1ccc(Cc2c[nH]c3ncc(C)cc23)c(F)n1 [PLX-5622] , the value recorded as its IC50 is > 1000 nM

----------
# Experiment description: Volume of distribution at steady state in male rat at 1.13 mg/kg, iv administered as single dose
# Type: ADME, organism-based
# Recorded conditions: in vivo, read-out: Vdss
Measurement type: Vd (L/kg)
// units = L/kg; emit number, no label

Measured Vd of COc1ncc(F)cc1CNc1ccc(Cc2c[nH]c3ncc(C)cc23)c(F)n1 : 1.2

----------
# System name: Tyrosine-protein kinase CSK (Homo sapiens, UniProt P41240)
Measurement type: IC50

Per the record, COc1ncc(F)cc1CNc1ccc(Cc2c[nH]c3ncc(C)cc23)c(F)n1 has IC50 of > 1 µM

----------
# System name: Protein kinase C zeta type (Homo sapiens)
# Sequence (Q05513 whole entry): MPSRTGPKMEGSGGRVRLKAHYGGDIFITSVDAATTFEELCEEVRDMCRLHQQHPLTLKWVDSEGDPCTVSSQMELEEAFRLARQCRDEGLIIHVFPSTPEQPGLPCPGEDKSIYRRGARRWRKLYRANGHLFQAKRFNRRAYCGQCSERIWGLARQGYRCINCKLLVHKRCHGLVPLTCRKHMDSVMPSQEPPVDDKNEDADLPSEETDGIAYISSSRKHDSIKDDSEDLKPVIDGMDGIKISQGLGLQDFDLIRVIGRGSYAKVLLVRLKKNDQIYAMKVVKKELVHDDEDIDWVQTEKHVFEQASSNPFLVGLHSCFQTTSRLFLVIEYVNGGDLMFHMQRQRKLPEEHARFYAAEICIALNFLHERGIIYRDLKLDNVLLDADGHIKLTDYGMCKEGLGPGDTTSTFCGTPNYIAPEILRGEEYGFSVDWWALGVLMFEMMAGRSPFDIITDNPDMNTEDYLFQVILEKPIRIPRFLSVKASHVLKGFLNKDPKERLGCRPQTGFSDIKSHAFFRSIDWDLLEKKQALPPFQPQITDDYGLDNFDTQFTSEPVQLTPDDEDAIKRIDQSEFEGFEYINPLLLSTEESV
Measurement type: IC50

Readout IC50 for COc1ncc(F)cc1CNc1ccc(Cc2c[nH]c3ncc(C)cc23)c(F)n1 , test system Protein kinase C zeta type (Homo sapiens), was > 1000 nM

----------
# Experiment description: Drug concentration in 5XFAD mouse brain at 1200 ppm administered as rodent chow for 180 days
# Format: ADME, tissue-based
# Recorded conditions: route po, time 180 day, read-out: Ct
Measurement type: concentration at 4320 h (ng/mL)
Record the value in ng/mL, omitting the unit from your answer.

Briefly, concentration at 4320 h measured for COc1ncc(F)cc1CNc1ccc(Cc2c[nH]c3ncc(C)cc23)c(F)n1 : 2390

----------
# System name: Rho-associated protein kinase 1 (Homo sapiens)
# Sequence (Q13464 whole entry): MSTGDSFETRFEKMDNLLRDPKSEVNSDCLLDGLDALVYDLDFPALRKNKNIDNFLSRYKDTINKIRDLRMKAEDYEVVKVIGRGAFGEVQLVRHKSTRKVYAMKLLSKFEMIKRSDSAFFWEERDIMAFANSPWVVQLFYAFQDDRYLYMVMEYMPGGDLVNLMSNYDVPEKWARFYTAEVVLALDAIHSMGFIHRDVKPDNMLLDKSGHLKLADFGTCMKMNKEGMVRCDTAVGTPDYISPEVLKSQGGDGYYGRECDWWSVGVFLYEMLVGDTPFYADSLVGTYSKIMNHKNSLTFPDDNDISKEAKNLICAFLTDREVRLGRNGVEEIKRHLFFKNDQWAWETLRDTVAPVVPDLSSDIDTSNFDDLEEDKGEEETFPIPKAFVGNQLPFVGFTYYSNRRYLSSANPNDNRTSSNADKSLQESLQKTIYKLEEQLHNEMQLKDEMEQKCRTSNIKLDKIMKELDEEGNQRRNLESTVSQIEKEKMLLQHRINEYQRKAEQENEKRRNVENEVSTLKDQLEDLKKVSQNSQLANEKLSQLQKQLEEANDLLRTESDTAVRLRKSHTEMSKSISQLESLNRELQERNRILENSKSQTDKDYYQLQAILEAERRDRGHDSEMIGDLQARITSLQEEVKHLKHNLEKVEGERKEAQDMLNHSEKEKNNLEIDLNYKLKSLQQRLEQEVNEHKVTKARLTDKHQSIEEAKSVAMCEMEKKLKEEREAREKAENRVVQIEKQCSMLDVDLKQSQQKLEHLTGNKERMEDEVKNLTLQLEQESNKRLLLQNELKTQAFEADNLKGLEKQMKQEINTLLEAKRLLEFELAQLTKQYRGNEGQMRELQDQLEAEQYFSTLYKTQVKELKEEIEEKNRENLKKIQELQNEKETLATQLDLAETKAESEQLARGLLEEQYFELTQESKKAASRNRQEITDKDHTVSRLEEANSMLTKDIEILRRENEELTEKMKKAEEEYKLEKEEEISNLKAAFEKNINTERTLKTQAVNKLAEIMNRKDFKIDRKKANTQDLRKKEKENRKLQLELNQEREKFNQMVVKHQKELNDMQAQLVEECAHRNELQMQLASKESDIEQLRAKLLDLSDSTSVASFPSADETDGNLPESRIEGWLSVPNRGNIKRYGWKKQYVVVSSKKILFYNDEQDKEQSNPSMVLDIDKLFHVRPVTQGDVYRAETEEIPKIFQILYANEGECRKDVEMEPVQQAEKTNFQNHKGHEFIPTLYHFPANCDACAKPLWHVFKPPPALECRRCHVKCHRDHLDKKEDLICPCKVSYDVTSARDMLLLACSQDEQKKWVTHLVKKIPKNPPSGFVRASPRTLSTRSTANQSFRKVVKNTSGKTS
Measurement type: IC50

Here COc1ncc(F)cc1CNc1ccc(Cc2c[nH]c3ncc(C)cc23)c(F)n1 [PLX-5622] was tested on Rho-associated protein kinase 1 (Homo sapiens), and its IC50 came to > 1000 nM

----------
# Experiment description: Cmax in mouse at 45 mg/kg, po administered as single dose via gavage
# Format: ADME, organism-based
# Recorded conditions: in vivo
Measurement type: Cmax (ng/mL)
Kindly answer with a numeric value in ng/mL, unit omitted.

Cmax reading for COc1ncc(F)cc1CNc1ccc(Cc2c[nH]c3ncc(C)cc23)c(F)n1 : 26300

----------
# System name: Aurora kinase C (Homo sapiens)
# Sequence (Q9UQB9 whole entry): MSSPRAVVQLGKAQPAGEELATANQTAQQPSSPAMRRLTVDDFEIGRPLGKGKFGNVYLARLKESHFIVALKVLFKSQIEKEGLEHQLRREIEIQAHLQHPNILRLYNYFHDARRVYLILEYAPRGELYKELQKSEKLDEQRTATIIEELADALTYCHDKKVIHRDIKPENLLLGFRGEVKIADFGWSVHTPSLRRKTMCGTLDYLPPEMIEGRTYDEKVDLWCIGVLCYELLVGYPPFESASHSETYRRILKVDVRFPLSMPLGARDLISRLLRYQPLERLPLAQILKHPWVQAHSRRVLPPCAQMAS
Measurement type: pIC50
Scale: pIC50 equals -log10([C]), with [C] in mol/L.

For COc1ncc(F)cc1CNc1ccc(Cc2c[nH]c3ncc(C)cc23)c(F)n1 the molecule record lists pIC50 as 6.00

----------
# System name: Ephrin type-A receptor 8 (Homo sapiens)
# Sequence (P29322 whole entry): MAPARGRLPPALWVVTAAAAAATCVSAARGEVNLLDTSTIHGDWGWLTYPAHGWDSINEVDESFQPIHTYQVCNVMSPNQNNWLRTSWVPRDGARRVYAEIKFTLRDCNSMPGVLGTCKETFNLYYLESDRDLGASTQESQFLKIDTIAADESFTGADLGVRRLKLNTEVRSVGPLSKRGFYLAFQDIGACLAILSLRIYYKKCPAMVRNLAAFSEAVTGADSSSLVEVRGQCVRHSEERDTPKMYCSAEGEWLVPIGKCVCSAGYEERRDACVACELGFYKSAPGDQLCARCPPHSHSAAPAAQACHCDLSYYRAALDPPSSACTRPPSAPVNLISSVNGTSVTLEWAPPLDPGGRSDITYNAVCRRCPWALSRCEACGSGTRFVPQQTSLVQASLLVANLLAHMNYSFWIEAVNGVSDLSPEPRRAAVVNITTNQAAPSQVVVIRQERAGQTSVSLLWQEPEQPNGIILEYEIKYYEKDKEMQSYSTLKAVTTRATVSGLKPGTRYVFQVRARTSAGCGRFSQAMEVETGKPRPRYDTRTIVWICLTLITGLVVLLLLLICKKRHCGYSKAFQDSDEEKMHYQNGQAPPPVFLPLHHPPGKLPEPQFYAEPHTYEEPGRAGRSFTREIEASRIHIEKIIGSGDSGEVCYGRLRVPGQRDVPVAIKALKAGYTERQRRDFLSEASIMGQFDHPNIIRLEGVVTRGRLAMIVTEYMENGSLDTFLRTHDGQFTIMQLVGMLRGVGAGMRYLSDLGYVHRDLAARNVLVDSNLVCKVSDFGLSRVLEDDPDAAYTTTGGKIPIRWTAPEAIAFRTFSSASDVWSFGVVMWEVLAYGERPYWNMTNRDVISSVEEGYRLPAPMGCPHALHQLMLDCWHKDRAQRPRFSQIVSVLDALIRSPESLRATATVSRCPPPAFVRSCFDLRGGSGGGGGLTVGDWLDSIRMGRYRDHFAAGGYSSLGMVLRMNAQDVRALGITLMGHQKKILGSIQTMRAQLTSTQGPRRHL
pIC50: −log10 of the molar value.
Measurement type: pIC50

Sample COc1ncc(F)cc1CNc1ccc(Cc2c[nH]c3ncc(C)cc23)c(F)n1 [PLX-5622] , system: Ephrin type-A receptor 8 (Homo sapiens). Its pIC50 is < 6.00
